experimental-target: T1, C5a receptor expressed on the surface of human PMNs (human, UniProt P21730 1-350)
T1 sequence (looked up): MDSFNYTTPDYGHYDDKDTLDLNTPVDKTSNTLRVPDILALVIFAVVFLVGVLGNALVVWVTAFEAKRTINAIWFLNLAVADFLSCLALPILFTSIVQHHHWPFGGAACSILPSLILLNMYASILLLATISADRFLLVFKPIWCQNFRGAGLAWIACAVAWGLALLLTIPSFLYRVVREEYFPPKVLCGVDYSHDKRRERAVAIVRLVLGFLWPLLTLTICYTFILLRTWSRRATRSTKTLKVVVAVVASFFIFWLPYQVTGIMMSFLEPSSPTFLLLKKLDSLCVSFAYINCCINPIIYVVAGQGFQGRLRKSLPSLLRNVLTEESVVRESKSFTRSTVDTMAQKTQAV
test-name: cell-based or functional assay
Non-standard residues stand in square brackets, D forms with d. No end group written: not given here.
endpoint-label: smooth muscle contraction of human umbilical artery, pD2

[
  {
    "binder": "YSFKPMPL[dA]RRRIPQSLDSWWTSL (synthetic peptide) [YSFKPMPLa[…]]",
    "observed-measurement": "4.41 -log EC50 (M)"
  },
  {
    "binder": "IPQSLDSWWTSLRVRRYSFKPMPL[dA]R (synthetic peptide; also called RVRR-containing C5a-active construct) [IPQSLDSWWTSLRVRRYSFKPMPLaR]",
    "observed-measurement": "6.67 -log EC50 (M)"
  },
  {
    "binder": "IPQSLDSWWTSLRRYSFKPMPL[dA]R (synthetic peptide; also called double-Arg-linked C5a-active construct) [IPQSLDSWWTSLRRYSFKPMPLaR]",
    "observed-measurement": "6.79 -log EC50 (M)"
  },
  {
    "binder": "IPQSLDSWWTSLYSFKPMPL[dA]R (synthetic peptide) [IPQSLDSWWTSLYSFKPMPLaR]",
    "observed-measurement": "6.68 -log EC50 (M)"
  }
]

Cited source: patent US20080286228A1
